protocol_notes: qHTS of pediatric cancer cell lines to identify multiple opportunities for drug repurposing: Confirmatory screen for NB-EBc1 cells (AID 1347115);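 also: cells exposed to compound for 48 h before the viability read; nearly all actives have a fitted effect of over 45% in size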
condition_details: NB-EBc1 neuroblastoma cells, viability (cytotoxicity); series mostly up to 45.9 µM
Results filed as inconclusive are left out. Active and inactive are the calls of the source. Calls follow the shape of the dose curve; as a rule, active = well fitted cell-killing curve with a large enough effect; inconclusive = small, poorly fitted or top-dose-only effect, or effect the other way; inactive = no such curve, though single readings can be large or run the other way.
Outcomes: yes (1) = active, no (0) = inactive

smiles_str	label_class
C[C@@H]1C[C@H]2[C@@H]3C[C@H](F)C4=CC(=O)C=C[C@]4(C)[C@@]3(F)[C@@H](O)C[C@]2(C)[C@@]1(O)C(=O)CO	no (0)
O=C1N=C(O)CN1/N=C/c1ccc(-c2ccc([N+](=O)[O-])cc2)o1	no (0)
O=C(O)CN1C(=O)c2cccc3cccc(c23)C1=O	yes (1)
CCN(CC)CCNC(=O)c1cc(Cl)c(N)cc1OC	no (0)

* * *

Entries and their measured viability change follow.
protocol_notes: Nrf2 qHTS screen for inhibitors: Validation (AID 493153)
condition_details: A549 ARE-Fluc reporter, 18-24 h; measured here: cytotoxicity max response
Records with an inconclusive call do not appear.

compound	unit_name	viability change
CCCn1cnc2c1c(=O)n(CCCCC(C)=O)c(=O)n2C	%	-13.4
N=c1c[n+](N2CCOCC2)[n-]o1	%	0.362
C[C@]12C[C@H](O)[C@H]3[C@@H](CCC4=CC(=O)CC[C@@]43C)[C@@H]1CC[C@@H]2C(=O)CO	%	-3.09
CSc1ccc2c(c1)C(N1CCN(C)CC1)Cc1ccccc1S2 (configuration not stated)	%	-13.4
CC(C)(C)[C@]1(O)CCN2C[C@H]3c4ccccc4CCc4cccc(c43)[C@@H]2C1	%	-7.91
CCN(CC)CCNC(=O)c1cc(Cl)c(N)cc1OC	%	-1.22
CN(C)CCCN1c2ccccc2CCc2ccccc21	%	-5.46
CC(=O)OCC(=O)[C@@]1(O)CC[C@H]2[C@@H]3CCC4=CC(=O)CC[C@]4(C)[C@H]3C(=O)C[C@@]21C	%	3.82
CC(C)(C(=O)O)c1ccc(C(O)CCCN2CCC(C(O)(c3ccccc3)c3ccccc3)CC2)cc1 (configuration not stated)	%	5.93
OCCN1CCN(CCCN2c3ccccc3Sc3ccc(Cl)cc32)CC1	%	-4.58
Nc1cc(=O)[nH]c(N)n1	%	1.17
C#CCN(C)Cc1ccccc1	%	1.01
NC1CCN(c2cccc(Cl)n2)CC1	%	-3.84
CC1=C(CC(=O)O)c2cc(F)ccc2/C1=C\c1ccc(S(C)=O)cc1 (configuration not stated)	%	-1.89
CC1=C(CC(=O)O)c2cc(F)ccc2/C1=C\c1ccc(S(C)(=O)=O)cc1	%	-17.2
CNCC(O)c1ccc(O)c(O)c1 (configuration not stated)	%	1.42
CNCCC(Oc1ccc(C(F)(F)F)cc1)c1ccccc1 (configuration not stated)	%	3.02

* * *

Tested on: PA-1
protocol_notes: Primary qHTS to identify gynecologic anti-cancer compounds using libraries of approved drugs and bioactive compounds (AID 1345084); also: % is scaled to controls: 0 for no effect and ±100 for the full control effect; nearly all actives have a fitted effect of over 55% in size
condition_details: Gynecologic cancer cell panel viability, ATPlite luminescence, 48 h; series mostly up to 57.5 µM
Inconclusive results are not listed. The source made the active and inactive calls. Calls follow the shape of the dose curve; as a rule, active = well fitted cell-killing curve with a large enough effect; inconclusive = small, poorly fitted or top-dose-only effect, or effect the other way; inactive = flat fitted curve, though single readings scatter.

molecule	activity change, negative = cytotoxicity
NC(CSCC(=O)O)C(=O)O (configuration not stated)	inactive
CC(=O)Nc1ccc(/C=N/NC(N)=S)cc1	inactive
C[C@]12C[C@H](O)[C@H]3[C@@H](CCC4=CC(=O)CC[C@@]43C)[C@@H]1CC[C@@H]2C(=O)CO	inactive
CC12CCC(CC1)C(C)(C)O2	inactive
O=C(O)CN1C(=O)c2cccc3cccc(c23)C1=O	inactive
CN(N=O)C(=O)N[C@@H]1[C@@H](O)[C@H](O)[C@@H](CO)O[C@@H]1O	inactive
NCC(=O)CCC(=O)O	inactive
O=C(O)CC(O)C(=O)O (configuration not stated)	inactive
O=C(O)c1ccccc1-c1ccc(C(F)(F)F)cc1	inactive
CC(C)(C)C(=O)NCCCC(=O)O	inactive
c1ccc2c(CC3=NCCN3)cccc2c1	inactive
COc1ccc(Cl)cc1C(=O)NCCc1ccc(S(=O)(=O)NC(=O)NC2CCCCC2)cc1	inactive
